# Measurement description: Cytotoxicity Determination (CCK-8, without addition of virus)
# Type: cell-based
# Recorded conditions: human, 50% cytotoxicity concentration (CC50)
Measured property: CC50 at 5 days

Request: So what's the measured CC50 at 5 days for this one? COc1cc(C(=O)NCC(O)(c2ccc(OC)c(-c3ccc(F)c(Cl)c3)n2)C2CC2)ccc1Cn1ccnc1 (stereo not shown) [Compound 438]
Result: 10 to 100 µM

Request: So what's the measured CC50 at 5 days for this one? COc1cc(C(=O)NCC(O)(CN2CCNC(=O)C2)c2ccc(OC)c(-c3ccc(F)c(Cl)c3)n2)ccc1OCCO (stereo not shown) [Compound 182]
Result: > 100 µM

Request: So what's the measured CC50 at 5 days for this one? COc1cc(C(=O)NC[C@](O)(c2cc(C(C)(C)N)cc(-c3ccc(C#N)cc3)n2)C(F)(F)F)ccc1OC[C@@H](C)O [Compound 624b]
Result: > 100 µM

Request: So what's the measured CC50 at 5 days for this one? COc1cc(C(=O)NC[C@@](O)(c2cc(C(C)(C)N)cc(-c3ccc(F)c(Cl)c3)n2)C(F)(F)F)ccc1OCC(N)=O [Compound 547]
Result: 10 to 100 µM

Request: So what's the measured CC50 at 5 days for this one? COc1cc(C(=O)NCC(O)(c2cc(C(C)(C)N)cc(-c3ccc(F)c(Cl)c3)n2)C(F)(F)F)ccc1OCC(C)(C)O (stereo not shown) [Compound 396]
Result: 10 to 100 µM

Request: So what's the measured CC50 at 5 days for this one? COc1cc(C(=O)NC[C@@](O)(c2cc(C(C)(C)N)cc(-c3ccc(F)cc3)n2)C(F)(F)F)ccc1OCCO [Compound 553]
Result: 10 to 100 µM

Request: So what's the measured CC50 at 5 days for this one? COc1cc(C(=O)NCC(O)(c2cc3c(c(-c4ccc(F)c(Cl)c4)n2)OCCC3(C)C)C(F)(F)F)ccc1OC[C@@H](C)O (stereo partly shown) [Compound 346]
Result: 10 to 100 µM

----------
# Tested on: Respiratory Syncytial Virus (RSV) long strain
# Measurement description: microbe, parasite or virus in culture
# Assay type: cell-based
# Recorded conditions: human respiratory syncytial virus, HEp-2, 120 h, read-out: 50% effective concentration (EC50), HEp-2 cells infected with RSV long strain, 5 days, CCK-8 readout; Tables A and B list compounds by EC50 band
# Experimental: CPE reduction assays are performed as described by Sidwell and Huffman et al., Appl. Microbiol. (1971) 22(5):797-801 with slight modifications. […] Place on ice until ready to use. […] After 5 days incubation, observe the CPE of cells in all wells. […] After 3-4 hour incubation, the absorbance of each well is measured with a spectrophotometric plate reader at 450 nm wavelength, using a 630 nm filter as background according to manufacturer's instruction.
pEC50: −log10 of the molar value.
Measured property: pEC50

Request: So what's the measured pEC50 for this one? COc1cc(C(=O)NCC(O)(c2cc(C(C)(N)CF)cc(-c3ccc(F)cc3)n2)C(F)(F)F)ccc1OCC(N)=O (single isomer, unassigned) [Compound 656]
Result: > 6.00

Request: So what's the measured pEC50 for this one? COc1cc(C(=O)NCC(O)(CO)c2ccc(OC)c(-c3ccc(F)c(Cl)c3)n2)ccc1OC1CC1 (stereo not drawn)
Result: > 6.00

Request: So what's the measured pEC50 for this one? COc1cc(C(=O)NCC(=O)c2cc3c(c(-c4ccc(F)c(C(C)F)c4)n2)OCCC3(C)C)ccc1OCCO (stereo not drawn)
Result: > 6.00

Request: So what's the measured pEC50 for this one? COc1cc(C(=O)NCC(O)(c2ccc(OC)c(-c3ccc(F)c(Cl)c3)n2)C(F)F)ccc1OCC(N)=O (stereo not drawn)
Result: > 6.00

Request: So what's the measured pEC50 for this one? COc1cc(C(=O)NCC(O)(c2ccc(OC)c(-c3ccc(F)c(Cl)c3)n2)c2cnn(C)n2)ccc1OCCO (stereo not drawn)
Result: > 6.00

Request: So what's the measured pEC50 for this one? COc1cc(C(=O)NCC(O)(c2ccc(OC)c(-c3ccc(F)c(Cl)c3)n2)C(F)(F)F)ccc1OC(C)C(N)=O (stereo not drawn)
Result: > 6.00

Request: So what's the measured pEC50 for this one? COc1cc(C(=O)NCC(O)(CN2CCNCC2=O)c2ccc(OC)c(-c3ccc(F)c(Cl)c3)n2)ccc1OCCO (stereo not drawn)
Result: 4.30 to 6.00

Request: So what's the measured pEC50 for this one? COc1cc(C(=O)NCC(O)(c2cc(C(C)(N)C(N)=O)cc(-c3ccc(F)c(Cl)c3)n2)C(F)(F)F)ccc1OC1CC1 (stereo not drawn)
Result: > 6.00

Request: So what's the measured pEC50 for this one? CCNC(C)(C)c1cc(-c2ccc(F)c(Cl)c2)nc(C(O)(CNC(=O)c2ccc(OC[C@H](C)O)c(OC)c2)C(F)(F)F)c1 (stereo partly drawn)
Result: > 6.00

Request: So what's the measured pEC50 for this one? COc1cc(C(=O)NCC(O)(c2cc(C(C)(C)N)cc(-c3ccc(F)c(Cl)c3)n2)C(F)(F)F)ccc1NC(C)=O (stereo not drawn)
Result: > 6.00

Request: So what's the measured pEC50 for this one? COc1cc(C(=O)NCC(C)(O)c2ncc(OC)c(-c3ccc(F)c(Cl)c3)n2)ccc1OCCO (stereo not drawn)
Result: 4.30 to 6.00

Request: So what's the measured pEC50 for this one? COc1cc(C(=O)NCC(O)(c2cc(C(C)(C)N)cc(-c3ccc(F)cc3)n2)C(F)(F)F)cnc1OCCO (stereo not drawn)
Result: > 6.00

Request: So what's the measured pEC50 for this one? CCc1cc(-c2ccc(F)cc2)nc(C(C)(O)CNC(=O)c2ccc(OCCO)c(OC)c2)c1 (stereo not drawn)
Result: > 6.00

Request: So what's the measured pEC50 for this one? COc1cc(C(=O)NCC(O)(c2cc3c(c(-c4ccc(F)c(Cl)c4)n2)OCC3(C)C)C(F)(F)F)ccc1CN1CCNC1=O (stereo not drawn)
Result: 4.30 to 6.00

Request: So what's the measured pEC50 for this one? COc1cc(C(=O)NCC(F)c2ccc(OC)c(-c3ccc(F)c(Cl)c3)n2)ccc1OCCO (stereo not drawn)
Result: 4.30 to 6.00

Request: So what's the measured pEC50 for this one? COc1ccc(C(=O)NCC(O)(c2ccc(OC)c(-c3ccc(F)c(Cl)c3)n2)C2CC2)cc1OC (stereo not drawn)
Result: > 6.00

Request: So what's the measured pEC50 for this one? COc1cc(C(=O)NC[C@](O)(c2cc3c(c(-c4ccc(F)cc4)n2)OC[C@@]3(C)N)C(F)(F)F)ccc1OC[C@@H](C)O
Result: > 6.00

Request: So what's the measured pEC50 for this one? COc1cc(C(=O)NCC(O)(c2cn(C)nn2)c2ccc(OC)c(-c3ccc(F)c(Cl)c3)n2)ccc1OCCO (stereo not drawn)
Result: > 6.00

Request: So what's the measured pEC50 for this one? COc1ccc(C(O)(CNC(=O)c2ccc3ncoc3c2)C(F)(F)F)nc1-c1ccc(F)c(Cl)c1 (stereo not drawn)
Result: 4.30 to 6.00

Request: So what's the measured pEC50 for this one? COc1cc(C(=O)NCC(O)(c2ccc(OC)c(-c3ccc(F)c(Cl)c3)n2)C(F)(F)F)ccc1OC1CCNC1=O (stereo not drawn)
Result: > 6.00

Request: So what's the measured pEC50 for this one? COc1cc(C(=O)NCC(C)(O)c2ccc(OC)c(-c3c[nH]c4c(F)cccc34)n2)ccc1OCCO (racemic)
Result: > 6.00

Request: So what's the measured pEC50 for this one? COc1cc(C(=O)NCC(O)(c2cc(C(C)(C)NC(N)=O)cc(-c3ccc(F)c(Cl)c3)n2)C(F)(F)F)ccc1OC1CC1 (stereo not drawn)
Result: > 6.00

Request: So what's the measured pEC50 for this one? COc1cc(C(=O)NCC(O)(c2ccc(OC)c(-c3ccc(F)c(Cl)c3)n2)C(F)(F)F)ccc1OC1(C)CC1 (stereo not drawn)
Result: > 6.00

Request: So what's the measured pEC50 for this one? COc1cc(C(=O)NCC(O)(c2cc3c(c(-c4ccc(F)cc4)n2)OCC3(N)C(C)C)C(F)(F)F)ccc1OCCO (stereo not drawn)
Result: > 6.00

Request: So what's the measured pEC50 for this one? COc1cc(C(=O)NCC(O)(c2cc3c(c(-c4ccc(C(F)(F)F)cc4)n2)OCC3(C)N)C(F)(F)F)ccc1OCCO (stereo not drawn)
Result: > 6.00

Request: So what's the measured pEC50 for this one? Cc1ncc(C(=O)NCC(O)(c2cc(C(C)(C)N)cc(-c3ccc(F)cc3)n2)C(F)(F)F)[nH]1 (stereo not drawn)
Result: 4.30 to 6.00

Request: So what's the measured pEC50 for this one? COc1cc(C(=O)NCC(O)(c2cc(C(C)(C)N)cc(-c3ccc(F)c(Cl)c3)n2)C(F)(F)F)ccc1OC1CC1 (stereo not drawn) [Compound 314]
Result: > 6.00

meta.source: patent US11021444B2
